EXPERIMENTAL CONTEXT: in ethyl acetate, 319.65 K
READOUT: solubility (mole fraction)

[ask] I have this compound here, "COc1ccc2nc(SCc3ncc(C)c(OC)c3C)[nH]c2c1" , and I need its recorded solubility (mole fraction).
[reply] 0.0208

----------
EXPERIMENTAL CONTEXT: in isopropanol, 296.65 K
READOUT: solubility (mole fraction)
I only need the number, thanks.

[ask] Param item = "COc1ccc2nc(SCc3ncc(C)c(OC)c3C)[nH]c2c1" ; retrieve measured solubility (mole fraction).
[reply] 0.0108

----------
EXPERIMENTAL CONTEXT: in ethanol, 280.35 K
READOUT: solubility (mole fraction)
Please state the value as a number alone, without comment.

[ask] Tell me the measured solubility (mole fraction) of "COc1ccc2nc(SCc3ncc(C)c(OC)c3C)[nH]c2c1" , please.
[reply] 0.0144
